STUDY_TARGET: T1, ProQ NTD WT (FinO domain) (Escherichia coli, UniProt P45577 1-130)
T1 sequence: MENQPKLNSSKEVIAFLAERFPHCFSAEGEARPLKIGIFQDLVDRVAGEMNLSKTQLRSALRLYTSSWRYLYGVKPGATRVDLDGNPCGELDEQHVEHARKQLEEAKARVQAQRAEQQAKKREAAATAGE
PROTOCOL_DESCRIPTION: EMSA; range for five RNAs; EMSA: 25 mM Tris pH 7.5, 150 mM NaCl, 5% glycerol, 1 mM MgCl2, 1 nM 32P-RNA, 30 min RT; microplates pretreated with 0.0025% BSA; 6% gel in 0.5x TBE at 4 C
TEST_PARAMETERS: protein: recombinant; tags: His6-TEV removed, N-terminal Ser remains; label: 5'-32P; terminator hairpin, 8 U 3' tail
pKd: −log10 of the molar value.
ASSAY_READOUT: pKd

INPUT: Tell me the measured pKd of cspE-3' (structured_RNA) RNA: GUAAGAUACGUCAGCAAGAAUUCAAAACCCGCUUAAUCAGCGGGUUUUUUUU , please.
OUTPUT: ~8.20

Values were extracted from paper PMC10578477.
